- System: B16F10 mouse melanoma cell line
- Assay type: cell-based
- condition summary: 6 days
result type: IC50 (µM)

[
  {
    "molecule": "CCCNC(=O)Nc1cccc(S(=O)(=O)Nc2cccc(C(CC(=O)O)NC(=O)Nc3ccc(NC(=S)N[C@@H](C)C(=O)N4CCC[C@H]4C(=O)N[C@@H](CC(C)C)C(=O)NC4C=CCC5CN(c6c(F)cc7c(=O)c(C(=O)O)cn(C8CC8)c7c6Cl)CC54)cc3)c2)c1 (single isomer, unassigned)",
    "numeric value": 2
  }
]

###

- Test system: HT29 human large intestine cell line
- Format: cell-based
Each item that follows carries a reported IC50.

[
  {
    "compound": "CCCNC(=O)Nc1cccc(S(=O)(=O)Nc2cccc(C(CC(=O)O)NC(=O)Nc3ccc(NC(=S)N[C@@H](Cc4c[nH]cn4)C(=O)N4CCC[C@H]4C(=O)N[C@H](C(=O)O[C@]4(CC)C(=O)OCc5c4cc4n(c5=O)Cc5cc6ccccc6nc5-4)C(C)C)cc3)c2)c1 (single isomer, unassigned) [Example 5]",
    "unit of measure": "nM",
    "IC50": 300
  },
  {
    "compound": "CCCNC(=O)Nc1cccc(S(=O)(=O)Nc2cccc(C(CC(=O)[O-])NC(=O)Nc3ccc(NC(=S)NCC(=O)N4CCC[C@H]4C(=O)N[C@H](C(=O)O[C@]4(CC)C(=O)OCc5c4cc4n(c5=O)Cc5cc6ccccc6nc5-4)C(C)C)cc3)c2)c1.[Na+] (single isomer, unassigned) [Example 2]",
    "unit of measure": "nM",
    "IC50": 150
  },
  {
    "compound": "CCCNC(=O)Nc1cccc(S(=O)(=O)Nc2cccc(C(CC(=O)O)NC(=O)Nc3ccc(NC(=S)N[C@@H](CCC)C(=O)N4CCC[C@H]4C(=O)N[C@H](C(=O)O[C@]4(CC)C(=O)OCc5c4cc4n(c5=O)Cc5cc6ccccc6nc5-4)C(C)C)cc3)c2)c1 (single isomer, unassigned) [Example 7]",
    "unit of measure": "nM",
    "IC50": 350
  },
  {
    "compound": "CCCNC(=O)Nc1cccc(S(=O)(=O)Nc2cccc(C(CC(=O)O)NC(=O)Nc3ccc(NC(=S)N[C@@H](C)C(=O)N4CCC[C@H]4C(=O)N[C@H](C(=O)O[C@]4(CC)C(=O)OCc5c4cc4n(c5=O)Cc5cc6ccccc6nc5-4)C(C)C)cc3)c2)c1 (single isomer, unassigned) [Example 4]",
    "unit of measure": "nM",
    "IC50": 150
  },
  {
    "compound": "CCCNC(=O)Nc1cccc(S(=O)(=O)Nc2cccc(C(CC(=O)O)NC(=O)Nc3ccc(NC(=S)N[C@@H](C)C(=O)N4CCC[C@H]4C(=O)N[C@H](C(=O)O[C@]4(CC)C(=O)OCc5c4cc4n(c5=O)Cc5cc6ccccc6nc5-4)C(C)C)cc3)c2)c1 (single isomer, unassigned) [Example 3]",
    "unit of measure": "nM",
    "IC50": 150
  },
  {
    "compound": "CCCNC(=O)Nc1cccc(S(=O)(=O)Nc2cccc(C(CC(=O)O)NC(=O)Nc3ccc(NC(=S)N[C@@H](CC(N)=O)C(=O)N4CCC[C@H]4C(=O)N[C@H](C(=O)O[C@]4(CC)C(=O)OCc5c4cc4n(c5=O)Cc5cc6ccccc6nc5-4)C(C)C)cc3)c2)c1 (single isomer, unassigned) [Example 6]",
    "unit of measure": "nM",
    "IC50": 200
  },
  {
    "compound": "CCCNC(=O)Nc1cccc(S(=O)(=O)Nc2cccc(C(CC(=O)O)NC(=O)Nc3ccc(NC(=S)NCC(=O)N4CCC[C@H]4C(=O)N[C@@H](CC(C)C)C(=O)O[C@]4(CC)C(=O)OCc5c4cc4n(c5=O)Cc5cc6ccccc6nc5-4)cc3)c2)c1 (single isomer, unassigned) [Example 9]",
    "unit of measure": "nM",
    "IC50": 30
  },
  {
    "compound": "CCCNC(=O)Nc1cccc(S(=O)(=O)Nc2cccc(C(CC(=O)[O-])NC(=O)Nc3ccc(NC(=S)NCC(=O)N4CCC[C@H]4C(=O)N[C@H](C(=O)O[C@]4(CC)C(=O)OCc5c4cc4n(c5=O)Cc5cc6ccccc6nc5-4)C(C)C)cc3)c2)c1.[Na+] (single isomer, unassigned) [Example 1]",
    "unit of measure": "nM",
    "IC50": 60
  },
  {
    "compound": "CCCNC(=O)Nc1cccc(S(=O)(=O)Nc2cccc(C(CC(=O)O)NC(=O)Nc3ccc(NC(=S)N[C@@H](CC(=O)O)C(=O)N4CCC[C@H]4C(=O)N[C@H](C(=O)O[C@]4(CC)C(=O)OCc5c4cc4n(c5=O)Cc5cc6ccccc6nc5-4)C(C)C)cc3)c2)c1 (single isomer, unassigned) [Example 8]",
    "unit of measure": "nM",
    "IC50": 50
  }
]
